# TARGET_UNDER_TEST: UniProt O14965
# Sequence (O14965 whole entry, looked up): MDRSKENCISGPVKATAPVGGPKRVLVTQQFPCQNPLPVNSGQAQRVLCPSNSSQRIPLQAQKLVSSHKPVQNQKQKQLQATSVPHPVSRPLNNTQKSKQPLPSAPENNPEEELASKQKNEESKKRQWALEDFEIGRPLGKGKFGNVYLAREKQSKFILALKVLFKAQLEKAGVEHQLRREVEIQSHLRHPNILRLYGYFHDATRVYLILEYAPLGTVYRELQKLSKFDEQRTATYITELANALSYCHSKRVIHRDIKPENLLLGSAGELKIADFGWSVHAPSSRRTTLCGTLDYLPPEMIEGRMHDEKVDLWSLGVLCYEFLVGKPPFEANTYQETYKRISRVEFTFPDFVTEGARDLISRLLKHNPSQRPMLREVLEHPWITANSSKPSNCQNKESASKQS
# TEST_SUMMARY: radiometric filter-binding kinase assay, Kinase HotSpot
# MEASUREMENT_SETUP: compound 0.5 µM; ATP 10 µM
ASSAY_ENDPOINT: residual activity (%)
Response body: numeric value in %, unit text excluded.

Solved cases below.
{"GIVEN_SMILES": "COc1cc2c(N3CCN(C(=O)Nc4ccc(OC(C)C)cc4)CC3)ncnc2cc1OCCCN1CCCCC1", "UNIT_DESCRIPTOR": "%", "OBSERVED_RESULT": 108}
{"GIVEN_SMILES": "N#CCCc1ccc2c(c1)-c1[nH]c3ccc([N+](=O)[O-])cc3c1CC(=O)N2", "UNIT_DESCRIPTOR": "%", "OBSERVED_RESULT": 78.7}
{"GIVEN_SMILES": "O=C1NC(=O)c2c1c1c3ccccc3[nH]c1c1[nH]c3cc(Br)ccc3c21", "UNIT_DESCRIPTOR": "%", "OBSERVED_RESULT": 60.7}

Form field residual activity, entry "Cn1cc(/C=C2\C(=O)Nc3ccc(S(N)(=O)=O)cc32)c2ccccc21" : 20

Form field residual activity, entry "Nc1ncnc2c1cnn2-c1ccccc1" : 91.9

Form field residual activity, entry "O=c1c2ccccc2[nH]c(=S)n1CCN1CCC(=C(c2ccc(F)cc2)c2ccc(F)cc2)CC1" : 100

Form field residual activity, entry "FC(F)(F)c1ccc(/C=C/c2nc(COc3ccc(CCCCn4ccnn4)cc3)co2)cc1" : 111

Form field residual activity, entry "O=C1NC(=O)c2cc(Nc3ccc(F)cc3)c(Nc3ccc(F)cc3)cc21" : 92.7

Form field residual activity, entry "COc1cc2c(cc1OC)-c1[nH]nc(Nc3cccc(F)c3)c1C2" : 94.6

Form field residual activity, entry "COc1cccc(-c2cc(=O)c3ccccc3o2)c1N" : 107

Form field residual activity, entry "O=C(O)c1ccc2c3c1cccc3c(=O)n1c3ccccc3nc21" : 78.6

Form field residual activity, entry "CCc1nc(-c2ccc(OC)cc2)[nH]c1-c1ccncc1" : 93.7

Form field residual activity, entry "c1ccc(-c2cnc(Nc3ccc(OCCN4CCCC4)cc3)s2)cc1" : 95.3
